molecular target: Glutamate carboxypeptidase 2 (Homo sapiens, UniProt Q04609); assay: Binding affinity to PSMA in human PC3-PIP cells assessed as drug uptake per 10^6 cells at 0.2 nM incubated for 1 hr followed by compound washout measured using 125I-labelled compound by gamma counter analysis; type: ADME, cell-based; details: 0.0002 µM
Sequence (Q04609 whole entry): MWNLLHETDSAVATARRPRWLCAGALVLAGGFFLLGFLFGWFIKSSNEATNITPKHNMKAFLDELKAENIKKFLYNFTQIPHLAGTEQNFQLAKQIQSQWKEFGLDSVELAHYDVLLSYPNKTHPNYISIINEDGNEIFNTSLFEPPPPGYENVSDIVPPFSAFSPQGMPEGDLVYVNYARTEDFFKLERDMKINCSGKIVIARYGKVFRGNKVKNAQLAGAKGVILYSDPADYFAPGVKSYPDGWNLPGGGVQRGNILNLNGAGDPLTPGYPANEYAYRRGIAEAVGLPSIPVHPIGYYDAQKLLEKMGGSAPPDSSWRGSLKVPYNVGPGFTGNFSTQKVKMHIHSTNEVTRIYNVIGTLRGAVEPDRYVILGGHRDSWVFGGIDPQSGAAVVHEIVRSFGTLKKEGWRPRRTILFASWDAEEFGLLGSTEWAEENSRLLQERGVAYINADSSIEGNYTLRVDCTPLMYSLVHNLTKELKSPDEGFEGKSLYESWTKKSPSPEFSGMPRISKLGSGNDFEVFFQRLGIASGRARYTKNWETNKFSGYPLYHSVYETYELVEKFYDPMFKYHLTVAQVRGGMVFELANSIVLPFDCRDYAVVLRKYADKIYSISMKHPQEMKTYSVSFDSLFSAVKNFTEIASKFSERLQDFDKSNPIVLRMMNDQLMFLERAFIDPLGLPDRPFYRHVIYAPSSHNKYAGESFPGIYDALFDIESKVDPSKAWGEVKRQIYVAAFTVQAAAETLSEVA
ASSAY_ENDPOINT: Drug uptake (%ID)
// units = %ID; emit number, no label

// worked examples, Drug uptake included
O=C(O)CC[C@H](NC(=O)N[C@@H](CCCCNC(=O)[C@H](Cc1ccccc1)NC(=O)[C@H](CCC(=O)O)NC(=O)[C@H](CCC(=O)O)NC(=O)c1ccc([125I])cc1)C(=O)O)C(=O)O :: 43
O=C(O)CC[C@H](NC(=O)N[C@@H](CCCCNC(=O)[C@H](Cc1ccccc1)NC(=O)COc1ccc(C[C@H](NC(=O)Nc2ccc([125I])cc2)C(=O)O)cc1)C(=O)O)C(=O)O :: 31
O=C(O)CC[C@H](NC(=O)N[C@@H](CCCCNC(=O)[C@H](Cc1ccccc1)NC(=O)COc1ccc(C[C@H](NC(=O)CNC(=O)c2ccc([125I])cc2)C(=O)O)cc1)C(=O)O)C(=O)O :: 36
O=C(O)CC[C@H](NC(=O)N[C@@H](CCCCNC(=O)[C@H](Cc1ccccc1)NC(=O)COc1ccc(C[C@H](NC(=O)[C@H](CCC(=O)O)NC(=O)[C@H](CCC(=O)O)NC(=O)c2ccc([125I])cc2)C(=O)O)cc1)C(=O)O)C(=O)O :: 39
O=C(O)CC[C@H](NC(=O)N[C@@H](CCCCNC(=O)[C@H](Cc1ccccc1)NC(=O)COc1ccc(C[C@H](NC(=O)[C@H](CCC(=O)O)NC(=O)c2ccc([125I])cc2)C(=O)O)cc1)C(=O)O)C(=O)O :: 49

Q. State its Drug uptake for this compound: O=C(O)CC[C@H](NC(=O)N[C@@H](CCCCNC(=O)[C@H](Cc1ccccc1)NC(=O)[C@H](CCC(=O)O)NC(=O)c1ccc([125I])cc1)C(=O)O)C(=O)O
A. 43

Q. Name the recorded Drug uptake of the compound listed here: O=C(O)CC[C@H](NC(=O)N[C@@H](CCCCNC(=O)Nc1ccc([125I])cc1)C(=O)O)C(=O)O
A. 40

----------
target: Glutamate carboxypeptidase 2 (Homo sapiens); test: Binding affinity to PSMA in human PC3-PIP cells assessed as drug uptake per 10^6 cells at 0.2 nM incubated for 2 hrs followed by compound washout measured using 125I-labelled compound by gamma counter analysis; assay type: ADME, cell-based; conditions: 0.0002 µM
ASSAY_ENDPOINT: Drug uptake (%ID)
Please respond with the number in %ID and leave the unit unwritten.

Known results for compounds:
O=C(O)CC[C@H](NC(=O)N[C@@H](CCCCNC(=O)[C@H](Cc1ccccc1)NC(=O)[C@H](CCC(=O)O)NC(=O)[C@H](CCC(=O)O)NC(=O)c1ccc([125I])cc1)C(=O)O)C(=O)O :: 75
O=C(O)CC[C@H](NC(=O)N[C@@H](CCCCNC(=O)Nc1ccc([125I])cc1)C(=O)O)C(=O)O :: 53
O=C(O)CC[C@H](NC(=O)N[C@@H](CCCCNC(=O)[C@H](Cc1ccccc1)NC(=O)[C@H](CCC(=O)O)NC(=O)c1ccc([125I])cc1)C(=O)O)C(=O)O :: 76

Q. Specify reported Drug uptake for the compound shown: O=C(O)CC[C@H](NC(=O)N[C@@H](CCCCNC(=O)[C@H](Cc1ccccc1)NC(=O)COc1ccc(C[C@H](NC(=O)[C@H](CCC(=O)O)NC(=O)[C@H](CCC(=O)O)NC(=O)c2ccc([125I])cc2)C(=O)O)cc1)C(=O)O)C(=O)O
A. 67

----------
target: UniProt:Q04609; assay: Inhibition of […] binding to PSMA in human PC3-PIP cells at 0.2 nM incubated for 1 hr; format: cell-based
Sequence (Q04609 whole entry, looked up): as the sequence (Q04609 whole entry) above
The source made the active and inactive calls. The rule behind the calls is not given here.
ASSAY_ENDPOINT: inhibition

O=C(O)CC[C@H](NC(=O)N[C@@H](CCCCNC(=O)[C@H](Cc1ccccc1)NC(=O)COc1ccc(C[C@H](NC(=O)CNC(=O)c2ccc(I)cc2)C(=O)O)cc1)C(=O)O)C(=O)O :: Active
O=C(O)CC[C@H](NC(=O)N[C@@H](CCCCNC(=O)[C@H](Cc1ccccc1)NC(=O)COc1ccc(C[C@H](NC(=O)Nc2ccc(I)cc2)C(=O)O)cc1)C(=O)O)C(=O)O :: Active
O=C(O)CC[C@H](NC(=O)N[C@@H](CCCCNC(=O)[C@H](Cc1ccccc1)NC(=O)COc1ccc(C[C@H](NC(=O)[C@H](CCC(=O)O)NC(=O)[C@H](CCC(=O)O)NC(=O)c2ccc(I)cc2)C(=O)O)cc1)C(=O)O)C(=O)O :: Active

----------
Measured Drug uptake values are reported for all entries that follow.
assay: Drug uptake in tumor of CD-1 nude mouse xenografted with PC3-PIP cells at 6 nM to 9 nM, iv measured at 1 hr using 125I-labelled compound by gamma counter analysis; format: ADME, organism-based, Neoplasm; settings: in vivo, 0.006 µM
Please reply with the bare figure in % ID/g and do not write the unit itself.

O=C(O)CC[C@H](NC(=O)N[C@@H](CCCCNC(=O)[C@H](Cc1ccccc1)NC(=O)[C@H](CCC(=O)O)NC(=O)c1ccc([125I])cc1)C(=O)O)C(=O)O :: 10.7

Q. Given the compound O=C(O)CC[C@H](NC(=O)N[C@@H](CCCCNC(=O)[C@H](Cc1ccccc1)NC(=O)COc1ccc(C[C@H](NC(=O)[C@H](CCC(=O)O)NC(=O)[C@H](CCC(=O)O)NC(=O)c2ccc([125I])cc2)C(=O)O)cc1)C(=O)O)C(=O)O , write its reported Drug uptake.
A. 17.2

Q. For the compound O=C(O)CC[C@H](NC(=O)N[C@@H](CCCCNC(=O)[C@H](Cc1ccccc1)NC(=O)COc1ccc(C[C@H](NC(=O)[C@H](CCC(=O)O)NC(=O)c2ccc([125I])cc2)C(=O)O)cc1)C(=O)O)C(=O)O , give its reported Drug uptake.
A. 26.2

Q. Specify reported Drug uptake for the compound shown: O=C(O)CC[C@H](NC(=O)N[C@@H](CCCCNC(=O)[C@H](Cc1ccccc1)NC(=O)[C@H](CCC(=O)O)NC(=O)[C@H](CCC(=O)O)NC(=O)c1ccc([125I])cc1)C(=O)O)C(=O)O
A. 18.5

----------
Measured Drug uptake, listed per entry.
test: Drug uptake in tumor of CD-1 nude mouse xenografted with PC3-PIP cells at 6 nM to 9 nM, iv measured at 4 hrs using 125I-labelled compound by gamma counter analysis; assay type: ADME, organism-based, Neoplasm; settings: in vivo, 0.006 µM
Give your result in % ID/g as a bare value.

// known answers, use as guide
O=C(O)CC[C@H](NC(=O)N[C@@H](CCCCNC(=O)[C@H](Cc1ccccc1)NC(=O)[C@H](CCC(=O)O)NC(=O)[C@H](CCC(=O)O)NC(=O)c1ccc([125I])cc1)C(=O)O)C(=O)O :: 23.1
O=C(O)CC[C@H](NC(=O)N[C@@H](CCCCNC(=O)[C@H](Cc1ccccc1)NC(=O)COc1ccc(C[C@H](NC(=O)[C@H](CCC(=O)O)NC(=O)c2ccc([125I])cc2)C(=O)O)cc1)C(=O)O)C(=O)O :: 14.3
O=C(O)CC[C@H](NC(=O)N[C@@H](CCCCNC(=O)[C@H](Cc1ccccc1)NC(=O)[C@H](CCC(=O)O)NC(=O)c1ccc([125I])cc1)C(=O)O)C(=O)O :: 5.17

Q. Assign Drug uptake to the following record: O=C(O)CC[C@H](NC(=O)N[C@@H](CCCCNC(=O)[C@H](Cc1ccccc1)NC(=O)COc1ccc(C[C@H](NC(=O)[C@H](CCC(=O)O)NC(=O)[C@H](CCC(=O)O)NC(=O)c2ccc([125I])cc2)C(=O)O)cc1)C(=O)O)C(=O)O
A. 17.4

----------
target: Glutamate carboxypeptidase 2 (Homo sapiens); assay: Displacement of [125I]MIP-1095 from PSMA in human PC3-PIP cells after 1 hr by gamma counter analysis
Some compounds, each annotated with its measured IC50.
Answer in nM, number only, no unit symbol.

The examples below pair each entry with its known result.
O=C(O)CC[C@H](NC(=O)N[C@@H](CCCCNC(=O)[C@H](Cc1ccccc1)NC(=O)COc1ccc(C[C@H](NC(=O)CNC(=O)c2ccc(I)cc2)C(=O)O)cc1)C(=O)O)C(=O)O :: 1.33
O=C(O)CC[C@H](NC(=O)N[C@@H](CCCCNC(=O)[C@H](Cc1ccccc1)NC(=O)COc1ccc(C[C@H](NC(=O)[C@H](CCC(=O)O)NC(=O)[C@H](CCC(=O)O)NC(=O)c2ccc(I)cc2)C(=O)O)cc1)C(=O)O)C(=O)O :: 3.52

Q. # return IC50 for O=C(O)CC[C@H](NC(=O)N[C@@H](CCCCNC(=O)Nc1ccc(I)cc1)C(=O)O)C(=O)O , test system: Glutamate carboxypeptidase 2 (Homo sapiens)
A. 3

Q. Report IC50 from Glutamate carboxypeptidase 2 (Homo sapiens) testing of O=C(O)CC[C@H](NC(=O)N[C@@H](CCCCNC(=O)[C@H](Cc1ccccc1)NC(=O)COc1ccc(C[C@H](NC(=O)Nc2ccc(I)cc2)C(=O)O)cc1)C(=O)O)C(=O)O
A. 13
